Molecular target: ScBem1-D1
Test: SPOT peptide array binding signal intensity (averaged, normalized) (arbitrary units (background-subtracted, floor 0; scale differs between SH3 domains)); higher = stronger binding of the SH3 domain to the peptide
Record form. Attribute: SPOT peptide array binding signal intensity. Fill in for each entry.
Give bare numbers.

NMLKKKPLKKPLKRF	31
LKRITSPPLPPRADS	10
GQYRRTIVIPRRFFT	9
QLMKNLPKIPLLNDI	3
KKIRLIFTYPSTVGR	19
LPMNIQPDLPPRKIM	1
IKKRNKIRLPSGSPE	62
RRRIAYPFYPFKKLG	16
SKIRPTPRKPSRMAT	14
NRPAIRIPSLKKPAL	19

Field: SPOT peptide array binding signal intensity. Fill in for each record below.
1. YVRRRPRVRLEPLLS
2. QRKSLRRPTLSKPAV
3. LRWRHKFFLPAIAAI

46.5
53
9.5

Hi, could you look up SPOT peptide array binding signal intensity for each item in my list?
1. EEEEEHPPLPARRKS
2. KKAPPPVVKPKPRNF
3. RVTRKRPREPKSTND

1: 0.5; 2: 6; 3: 76

Report SPOT peptide array binding signal intensity for every entry below.
1. ISRRRLPVIMHRLKM
2. WTQRRGPLVVYAEDN
3. QTMRQAPKRPDADVA
4. ILARAILTIPRVLDK
5. KTKQQKPAIPQKKSF
6. VSKLRSPNTPRRLRK
7. VLRFLGFPLPIFEKG

23
11.5
1
8
15
25.2
11.5
